Test: p53 small molecule agonists, cell-based qHTS assay: qHTS cell viability counter screen (AID 1963581); also: nearly all actives have a fitted effect of over 45% in size
Conditions: p53RE-bla HCT-116 viability, ATP luminescence, 16 h; series mostly up to 66 µM
Records with an inconclusive call do not appear. Active and inactive are the calls of the source. Calls follow the shape of the full dose curve.
# output must be one of True = active, False = inactive

As a guide, the following entries are already answered.
O=C(Cl)OCc1ccccc1 : False
COc1ccc(N)cc1 : False
CCC(C)(C#N)N=NC(C)(C#N)CC (stereo not drawn) : False

Dear colleague, could you share the recorded outcome for CNC(=O)Oc1cccc2c1OC(C)(C)O2 when you have a moment? False

Dear colleague, could you share the recorded outcome for O=Cc1ccc(Cl)cc1Cl when you have a moment? False

Dear colleague, could you share the recorded outcome for [N-]=[N+]=[N-] when you have a moment? False

Dear colleague, could you share the recorded outcome for CCOC(=O)Nc1cccc(OC(=O)Nc2ccccc2)c1 when you have a moment? False

Dear colleague, could you share the recorded outcome for COc1cc(OC)nc(NC(=O)NS(=O)(=O)c2ncccc2C(=O)N(C)C)n1 when you have a moment? False

----------
Molecular target: Gonadotropin-releasing hormone receptor (Homo sapiens) (UniProt P30968)
Sequence (P30968 whole entry, looked up): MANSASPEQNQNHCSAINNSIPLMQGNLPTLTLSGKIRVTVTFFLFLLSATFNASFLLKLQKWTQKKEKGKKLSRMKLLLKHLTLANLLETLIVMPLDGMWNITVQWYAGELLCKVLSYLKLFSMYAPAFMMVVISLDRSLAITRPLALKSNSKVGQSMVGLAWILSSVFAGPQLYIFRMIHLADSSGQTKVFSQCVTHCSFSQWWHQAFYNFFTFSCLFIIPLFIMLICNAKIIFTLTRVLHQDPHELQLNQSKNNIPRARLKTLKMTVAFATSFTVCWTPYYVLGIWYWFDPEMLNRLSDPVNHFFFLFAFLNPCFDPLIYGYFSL
Test: Human gonadotropin-releasing hormone receptor (GnRHR) small molecule agonists, calcium flux assay in GnRHR-HEK293 cells (AID 1920063); also: nearly all actives have a fitted effect of over 35% in size
Settings: calcium flux fluorescence, agonist mode; series mostly up to 57.6 µM
Active and inactive are the calls of the source. The call rests on the fitted dose curve.
# output must be one of 1.0 = active, 0.0 = inactive

As a guide, the following entries are already answered.
Cc1cc(Cl)ccc1N : 0.0
CNC(=O)NC(O)C(Cl)(Cl)Cl (stereo unspecified) : 0.0
CC(C)C#N : 0.0
C=CC(=O)OCC(CC)CCCC (stereo unspecified) : 0.0
OCCCl : 0.0
O=C(Cl)C(Cl)Cl : 0.0
CCC(C)c1cc([N+](=O)[O-])cc([N+](=O)[O-])c1O (stereo unspecified) : 0.0
Cc1ccc([N+](=O)[O-])cc1C : 0.0

Dear colleague, could you share the recorded outcome for O=C(O)C(F)(F)C(F)(F)C(F)(F)C(F)(F)C(F)(F)C(F)(F)C(F)(F)C(F)(F)C(F)(F)C(F)(F)F when you have a moment? 0.0

Dear colleague, could you share the recorded outcome for ClCCN1CCCC1 when you have a moment? 0.0

Dear colleague, could you share the recorded outcome for C1CS1 when you have a moment? 0.0

----------
Assay: Nuclear factor erythroid 2-related factor 2/antioxidant responsive element (Nrf2/ARE) small molecule agonists: qHTS cell viability counter screen in human keratinocytes (AID 1919968); also: nearly all actives have a fitted effect of over 55% in size
Conditions: KeratinoSens HaCaT ARE cells viability, CellTiter-Fluor, 24 h; series mostly up to 92.4 µM
Results filed as inconclusive are left out. The source made the active and inactive calls. Calls come from the whole dose curve; as a rule, active = well fitted cell-killing curve with a large enough effect in the repeat runs; inconclusive = weak or mixed curves, or effect the other way; inactive = flat fitted curve, though single readings scatter.
Measured attribute: outcome

Recorded outcome, per entry:
CC1CCC(=O)O1 (stereo not given) : inactive
Nc1ccc(N=Nc2ccc(-c3ccc(N=Nc4c(S(=O)(=O)O)cc5cc(S(=O)(=O)O)c(N=Nc6ccccc6)c(O)c5c4N)cc3)cc2)c(N)c1 : inactive
CCCCC(CC)COC(=O)Cl (stereo not given) : inactive
COc1ccc(CO)cc1 : inactive

Continue with the molecule presented below.
Identify measured outcome corresponding to C#CCOC(=O)/C=C(C)/C=C/CC(C)CCCC(C)C (stereo not given) inactive

----------
Assay: p53 small molecule agonists, cell-based qHTS assay: qHTS cell viability counter screen (AID 1963581); also: nearly all actives have a fitted effect of over 45% in size
Conditions: p53RE-bla HCT-116 viability, ATP luminescence, 16 h; series mostly up to 66 µM
Records with an inconclusive call do not appear. Calls of active or inactive are those of the source. Calls follow the shape of the full dose curve.
Measured attribute: outcome

Recorded outcome, per entry:
Nc1ccc(Cl)cc1 : inactive
CC(C)=CCN1CC[C@@]2(C)c3cc(O)ccc3C[C@@H]1[C@@H]2C : inactive
CCN(CC)N=O : inactive
Nc1ccc(-c2ccc(N)c(Cl)c2)cc1Cl : inactive

Continue with the molecule presented below.
Identify measured outcome corresponding to CCCC[N+]1(C)CCCC1 (tested in a mixture with another compound) inactive
